meta.source: patent US20090010874A1

Form field: Fold increase in IC50 (relative to IL-4DM), primary B cells (one value per entry).
# target under test: T1, human IL-4 receptor alpha chain on cells (TF-1 cells, primary human T-cell blasts and B cells) (human, UniProt P24394 26-825)
# T1 sequence (looked up): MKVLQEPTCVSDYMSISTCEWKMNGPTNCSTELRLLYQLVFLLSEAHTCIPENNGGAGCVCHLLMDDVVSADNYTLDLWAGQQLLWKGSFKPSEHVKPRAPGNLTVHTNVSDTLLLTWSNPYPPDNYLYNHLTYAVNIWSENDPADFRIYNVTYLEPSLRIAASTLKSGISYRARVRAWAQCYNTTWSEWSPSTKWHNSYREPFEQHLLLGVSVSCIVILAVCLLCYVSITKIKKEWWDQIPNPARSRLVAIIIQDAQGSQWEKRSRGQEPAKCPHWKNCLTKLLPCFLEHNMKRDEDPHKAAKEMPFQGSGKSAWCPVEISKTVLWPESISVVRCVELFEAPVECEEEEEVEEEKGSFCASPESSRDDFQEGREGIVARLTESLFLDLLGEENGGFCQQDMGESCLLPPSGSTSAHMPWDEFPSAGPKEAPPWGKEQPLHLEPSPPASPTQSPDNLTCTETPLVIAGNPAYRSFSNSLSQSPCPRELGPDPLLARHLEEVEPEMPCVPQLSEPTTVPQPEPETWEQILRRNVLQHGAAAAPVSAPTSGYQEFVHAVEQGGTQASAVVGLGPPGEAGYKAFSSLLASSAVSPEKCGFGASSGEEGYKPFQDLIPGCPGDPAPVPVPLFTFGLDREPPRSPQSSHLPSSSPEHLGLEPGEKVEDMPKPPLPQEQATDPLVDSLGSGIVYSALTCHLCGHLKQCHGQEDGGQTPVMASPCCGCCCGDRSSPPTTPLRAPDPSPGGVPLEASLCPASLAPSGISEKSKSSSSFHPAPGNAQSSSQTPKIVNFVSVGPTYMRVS
# test: cell-based or functional assay
observation type: Fold increase in IC50 (relative to IL-4DM), primary B cells (fold)

binder	u	recorded number
IL-4TM-A104C (R121D/Y124D/A104C) PEGylated with 30 kDa linear maleimide-PEG (ligand, 30 kDa linear maleimide-PEG on Cys 104 (numbered according to wild type IL-4)) MHKCDITLQEIIKTLNSLTEQKTLCTELTVTDIFAASKNTTEKETFCRAATVLRQFYSHHEKDTRCLGATAQQFHRHKQLIRFLKRLDRNLWGLAGLNSCPVKECNQSTLENFLERLKTIMDEKDSKCSS	fold	7.6
IL-4TM-N38C (R121D/Y124D/N38C) PEGylated with 40 kDa branched maleimide-PEG (ligand, 40 kDa branched maleimide-PEG on Cys 38 (numbered according to wild type IL-4)) MHKCDITLQEIIKTLNSLTEQKTLCTELTVTDIFAASKCTTEKETFCRAATVLRQFYSHHEKDTRCLGATAQQFHRHKQLIRFLKRLDRNLWGLAGLNSCPVKEANQSTLENFLERLKTIMDEKDSKCSS	fold	4
PEGylated T13D-N38C with 40 kDa branched PEG (IL4-RE-T13D-N38C) (ligand, 40 kDa branched maleimide-PEG on Cys 38 (numbered according to wild type IL-4)) MHKCDITLQEIIKDLNSLTEQKTLCTELTVTDIFAASKCTTEKETFCRAATVLRQFYSHHEKDTRCLGATAQQFHRHKQLIRFLKRLDRNLWGLAGLNSCPVKEANQSTLENFLERLKTIMDEKDSKCSS	fold	1.4
IL4-RE-T13D (T13D/R121D/Y124D), unPEGylated (ligand) MHKCDITLQEIIKDLNSLTEQKTLCTELTVTDIFAASKNTTEKETFCRAATVLRQFYSHHEKDTRCLGATAQQFHRHKQLIRFLKRLDRNLWGLAGLNSCPVKEANQSTLENFLERLKTIMDEKDSKCSS	fold	0.3
IL-4RA (IL-4 double mutein R121D/Y124D, unPEGylated) (ligand, also called BAY 16-9996; IL-4DM) MHKCDITLQEIIKTLNSLTEQKTLCTELTVTDIFAASKNTTEKETFCRAATVLRQFYSHHEKDTRCLGATAQQFHRHKQLIRFLKRLDRNLWGLAGLNSCPVKEANQSTLENFLERLKTIMDEKDSKCSS	fold	1
IL-4TM-A104C (R121D/Y124D/A104C) PEGylated with 40 kDa branched maleimide-PEG (ligand, 40 kDa branched maleimide-PEG on Cys 104 (numbered according to wild type IL-4)) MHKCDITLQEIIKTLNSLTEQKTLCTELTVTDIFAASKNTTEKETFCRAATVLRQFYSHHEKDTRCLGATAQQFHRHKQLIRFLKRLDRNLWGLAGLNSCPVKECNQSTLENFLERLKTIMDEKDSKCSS	fold	11.3
